MEASURED_TARGET: UreG
EXPERIMENTAL_DETAILS: UreG GTPase activity (Malachite Green Phosphate Assay)
EXPERIMENTAL_CONDITIONS: alkaloid 0, 6.25, 12.5, 25, 50 and 100 μM; triplicate; read-out: IC50 against UreG GTPase activity
EXPERIMENTAL_ENDPOINT: pIC50
Keep it numeric: pIC50 is minus log10 of the concentration in mol/L.

c1c2c(cc3c1OCO3)-c1cc3ccc4c(c3c[n+]1CC2)OCO4 [Coptisine chloride] | 4.06

Field pIC50 (entry COc1cc2c(cc1O)CC[n+]1cc3c(OC)c(OC)ccc3cc1-2 [Jatrorrizine chloride] ) reads 4.22
